# Test Name: ATG_CRE_CIS: Attagene CIS-FACTORIAL HepG2 Assay for human cAMP Responsive Element (CRE) binding protein 3 (AID 2282926)
# Details: HepG2 CRE cis-reporter, Attagene multiplexed mRNA; actives raise or lower the signal
Active and inactive are the calls of the source. How the source made its calls: active means hit-call score of the fitted dose curve at least 0.9, where 1 is the maximum; inactive means score below 0.9.
Classes used: t for active, f for inactive

1) C=CCN=C=S : f
2) O=C(NC(=O)c1c(F)cccc1F)Nc1ccc(Cl)cc1 : f
3) CCCCCCCCCCCCN(C)C : f
4) CC(C=O)Cc1ccc2c(c1)OCO2 (stereo unspecified) : f
5) N#Cc1cccnc1 : f
6) Clc1cc(C(Cl)(Cl)Cl)cnc1Cl : f
7) C=CC(=O)[O][Sn]([CH2]CCC)([CH2]CCC)[CH2]CCC : t
8) O=C(CBr)c1ccc(O)cc1 : f
9) O=S(=O)(Oc1ccc(Cl)cc1)c1ccc(Cl)cc1 : f
10) CCCCCCCCCCBr : f
11) C=C(C)C(=O)OCCCCOC(=O)C(=C)C : f
12) CCOc1cc(C=O)ccc1O : f
13) c1cc[c]([Sb]([c]2ccccc2)[c]2ccccc2)cc1 : f
14) O=C(NC(=O)c1c(F)cccc1F)Nc1cc(Cl)c(Oc2ncc(C(F)(F)F)cc2Cl)c(Cl)c1 : f
15) O=[N+]([O-])c1cccc2ccccc12 : f
16) O=S(=O)(c1ccc(Cl)cc1)c1cc(Cl)c(Cl)cc1Cl : t
